- Assayed Target: human kinase Mps-1 (Homo sapiens, UniProt P33981)
- Construct: N-terminally GST-tagged human full length recombinant Mps-1 kinase; GST (N); purchased Invitrogen, Karslruhe, Germany PV4071
- Sequence (P33981 1-857): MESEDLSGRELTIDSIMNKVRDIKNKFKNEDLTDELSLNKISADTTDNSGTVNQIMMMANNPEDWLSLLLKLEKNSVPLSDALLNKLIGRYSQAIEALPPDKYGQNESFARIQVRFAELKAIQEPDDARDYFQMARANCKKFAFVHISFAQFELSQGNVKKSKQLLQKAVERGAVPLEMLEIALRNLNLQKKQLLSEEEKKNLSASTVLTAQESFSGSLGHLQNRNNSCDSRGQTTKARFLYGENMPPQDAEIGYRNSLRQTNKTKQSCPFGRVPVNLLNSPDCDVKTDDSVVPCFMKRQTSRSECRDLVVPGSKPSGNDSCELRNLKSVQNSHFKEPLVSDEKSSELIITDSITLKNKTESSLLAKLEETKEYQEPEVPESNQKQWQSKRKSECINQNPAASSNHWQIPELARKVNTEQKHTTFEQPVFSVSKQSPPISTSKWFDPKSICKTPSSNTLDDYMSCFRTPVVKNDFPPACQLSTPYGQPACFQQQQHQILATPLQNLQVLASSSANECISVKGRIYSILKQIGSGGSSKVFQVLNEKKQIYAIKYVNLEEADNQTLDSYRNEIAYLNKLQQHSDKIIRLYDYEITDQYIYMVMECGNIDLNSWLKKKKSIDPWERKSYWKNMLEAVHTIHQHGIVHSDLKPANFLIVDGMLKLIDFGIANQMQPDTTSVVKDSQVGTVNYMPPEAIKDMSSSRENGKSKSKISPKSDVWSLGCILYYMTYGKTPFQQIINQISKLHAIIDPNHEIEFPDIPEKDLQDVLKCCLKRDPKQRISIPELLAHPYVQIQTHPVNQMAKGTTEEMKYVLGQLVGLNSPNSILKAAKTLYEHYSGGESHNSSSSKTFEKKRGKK
- Assay: Mps-1 kinase assay (TR-FRET)
- Type: biochemical
- Condition Set: Mps1 IC50 [nM], N-terminally GST-tagged human full length recombinant Mps-1; 10 μM ATP; 1 μM biotinylated peptide substrate; 60 min at 22° C.
Here, each record is paired with measured IC50 data.

{"Compound": "O=C(NC1CC1)c1ccc(-c2cnc3c(NCC4CCCCO4)nccn23)cc1O (stereo not shown)", "Assayed Target": "human kinase Mps-1 (Homo sapiens, UniProt P33981)", "IC50 (nM)": 247}
{"Compound": "Cc1cc(-c2cnc3c(NCc4ccnn4C)nccn23)ccc1C(=O)NC1CC1", "Assayed Target": "human kinase Mps-1 (Homo sapiens, UniProt P33981)", "IC50 (nM)": 67}
{"Compound": "O=C(NC1CC1)c1ccc(-c2cnc3c(NCc4ccc(F)cc4)nccn23)cc1Cl", "Assayed Target": "human kinase Mps-1 (Homo sapiens, UniProt P33981)", "IC50 (nM)": 112}
{"Compound": "CC(C)(O)CNc1nccn2c(-c3ccc(C(=O)NC4CC4)c(O)c3)cnc12", "Assayed Target": "human kinase Mps-1 (Homo sapiens, UniProt P33981)", "IC50 (nM)": 160}

====

- Assayed Target: human kinase Mps-1 (Homo sapiens, UniProt P33981)
- Construct: N-terminally GST-tagged human full length recombinant Mps-1 kinase; GST (N); purchased Invitrogen, Karslruhe, Germany PV4071
- Assay: Mps-1 kinase assay (TR-FRET)
- Type: biochemical
- Condition Set: Mps1 IC50 [nM], N-terminally GST-tagged human full length recombinant Mps-1; 10 μM ATP; 1 μM biotinylated peptide substrate; 60 min at 22° C.
Here, each record is paired with measured IC50 data.
Measurement Label: IC50

{"Compound": "Cc1cc(-c2cnc3c(NCC(F)(F)F)nccn23)ccc1C(=O)NC1CC1 [Example 7-100]", "Value Observed": "217 nM"}
{"Compound": "O=C(NC1CC1)c1ccc(-c2cnc3c(NCC(F)(F)C(F)(F)F)nccn23)cc1Cl [Example 7-53]", "Value Observed": "106 nM"}
{"Compound": "Cc1cc(-c2cnc3c(NCCCN4CCCC4=O)nccn23)ccc1C(=O)NC1CC1 [Example 7-95]", "Value Observed": "562 nM"}
